Biological target: Recombinant KRAS G12C mutant protein (amino acids 1-169, SEQ ID NO: 1) (Homo sapiens, UniProt P01116, G12C)
Construct: His6 (N); TEV protease site (ENLYFQG; named from own knowledge) (N)
Sequence (P01116 with tags, fused parts or gaps isoform P01116-2 G12C): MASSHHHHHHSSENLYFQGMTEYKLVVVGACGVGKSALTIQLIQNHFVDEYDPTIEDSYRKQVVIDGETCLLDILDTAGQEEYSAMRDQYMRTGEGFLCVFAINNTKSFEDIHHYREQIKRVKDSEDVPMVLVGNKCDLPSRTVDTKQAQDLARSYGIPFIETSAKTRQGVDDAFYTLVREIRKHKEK
Experiment: Test Example 1: inhibitory activity on KRAS G12C nucleotide (GDP-GTP) exchange reaction in vitro
Settings: BODIPY FL GDP-bound KRAS G12C incubated with compound at 25° C. for 1 hour, then SOS1 and GMPPNP, read-out: GNE IC50
pIC50: −log10 of the molar value.
assayMetric: pIC50

{"compound": "C#Cc1cccc2cc(O)cc(C3Cc4nc(OC[C@@H]5CCCN5C)nc(N5CCN(C(=O)/C=C/CN[C@H]6CC[C@H](OC)CC6)[C@@H](CC#N)C5)c4CO3)c12 (stereo partly drawn) [Example 9]", "observedMeasurement": 8.90}
{"compound": "COC1CCN(C/C=C/C(=O)N2CCN(c3nc(OC[C@@H]4CCCN4C)nc4c3COC(c3cccc5ccccc35)C4)C[C@@H]2CC#N)CC1 (stereo partly drawn) [Example 4]", "observedMeasurement": 8.14}
{"compound": "C#Cc1cccc2cc(O)cc([C@@H]3Cc4nc(OC[C@@H]5CCCN5C)nc(N5CCN(C(=O)/C=C/CN6CCC(OC)CC6)[C@@H](CC#N)C5)c4CO3)c12 [Example 7]", "observedMeasurement": 9.06}
{"compound": "C#Cc1cccc2cc(O)cc(C3Cc4nc(OC[C@@H]5CCCN5C)nc(N5CCN(C(=O)/C=C/CN6CCC(OC)CC6)[C@@H](CO)C5)c4CO3)c12 (stereo partly drawn) [Example 19]", "observedMeasurement": 7.33}
{"compound": "CO[C@H]1CC[C@H](NC/C=C/C(=O)N2CCN(c3nc(OC[C@@H]4CCCN4C)nc4c3COC(c3cccc5ccccc35)C4)C[C@@H]2CC#N)CC1 (stereo partly drawn) [Example 2]", "observedMeasurement": 8.45}
{"compound": "C#Cc1cccc2cccc(C3Cc4nc(OCC5(CN6CCOCC6)CC5)nc(N5CCN(C(=O)/C=C/CN6CCC(OC)CC6)[C@@H](CC#N)C5)c4CO3)c12 (stereo partly drawn) [Example 6]", "observedMeasurement": 7.81}

----------
Entries and their log10 IC50 values follow.
Target: interaction between KRAS G12C and cRAF-RBD (Homo sapiens, UniProt P01116, G12C)
Construct: TEV protease site (ENLYFQG)
Sequence (P01116 with tags, fused parts or gaps isoform P01116-2 G12C): as above
Test: Test Example 2: inhibitory activity on interaction between KRAS G12C and cRAF (Alpha technology)
Settings: GMPPNP-bound KRAS G12C incubated with compound at 25° C. for 1 hour, then cRAF-RBD
assayMetric: log10 IC50 (log10 of the value in nM)

{"compound": "CO[C@H]1CC[C@H](NC/C=C/C(=O)N2CCN(c3nc(OC[C@@H]4CCCN4C)nc4c3COC(c3cccc5ccccc35)C4)C[C@@H]2CC#N)CC1 (stereo partly shown)", "log10 IC50": 4.64}
{"compound": "C#Cc1cccc2cc(O)cc([C@@H]3Cc4nc(OC[C@@H]5CCCN5C)nc(N5C[C@H](CC#N)N(C(=O)/C=C/CN6CCC(OC)CC6)C[C@H]5C)c4CO3)c12", "log10 IC50": 2.73}
{"compound": "C#Cc1cccc2cc(O)cc([C@@H]3Cc4nc(OC[C@@H]5CCCN5C)nc(N5CCN(C(=O)/C=C/CN[C@H]6CC[C@H](OC)CC6)[C@@H](CC#N)C5)c4CO3)c12", "log10 IC50": 1.81}
{"compound": "C#Cc1cccc2cc(O)cc([C@@H]3Cc4nc(OCC5(CN6CCOCC6)CC5)nc(N5CCN(C(=O)/C=C/CN6CCC(OC)CC6)[C@@H](CC#N)C5)c4CO3)c12", "log10 IC50": 1.40}
{"compound": "C#Cc1cccc2cccc(C3Cc4nc(OCC5(CN6CCOCC6)CC5)nc(N5CCN(C(=O)/C=C/CN6CCC(OC)CC6)[C@@H](CC#N)C5)c4CO3)c12 (stereo partly shown)", "log10 IC50": 3.10}
{"compound": "COC1CCN(C/C=C/C(=O)N2CCN(c3nc(OC[C@@H]4CCCN4C)nc4c3CO[C@H](c3cc(O)cc5cccc(Br)c35)C4)C[C@@H]2CC#N)CC1", "log10 IC50": 2.03}

----------
Molecular target: Recombinant KRAS G12C mutant protein (amino acids 1-169, SEQ ID NO: 1) (Homo sapiens, UniProt P01116, G12C)
Construct: His6 (N); TEV protease site (ENLYFQG; named from own knowledge) (N)
Test: Test Example 1: inhibitory activity on KRAS G12C nucleotide (GDP-GTP) exchange reaction in vitro
Conditions: BODIPY FL GDP-bound KRAS G12C incubated with compound at 25° C. for 1 hour, then SOS1 and GMPPNP, read-out: GNE IC50

{"compound": "COC1CCN(C/C=C/C(=O)N2CCN(c3nc(OC[C@@H]4CCCN4C)nc4c3COC(c3cccc5cccc(Br)c35)C4)C[C@@H]2CC#N)CC1 (stereo partly drawn) [Example 5]", "IC50": "2.63 nM"}
{"compound": "CN1CCC[C@H]1COc1nc2c(c(N3CCN(C(=O)/C=C/CNC4CC5CCC(C4)O5)[C@@H](CC#N)C3)n1)COC(c1cccc3ccccc13)C2 (stereo partly drawn) [Example 3]", "IC50": "5.22 nM"}
{"compound": "C#Cc1cccc2cc(O)cc([C@@H]3Cc4nc(OCC5(C(=O)N(C)C)CC5)nc(N5CCN(C(=O)/C=C/CN6CCC(OC)CC6)[C@@H](CC#N)C5)c4CO3)c12 [Example 18]", "IC50": "58.7 nM"}
{"compound": "C#Cc1cccc2cc(O)cc([C@@H]3Cc4nc(OC[C@@H]5CCCN5C)nc(N5CCN(C(=O)/C=C/CN[C@H]6CC[C@H](OC)CC6)[C@@H](CC#N)C5)c4CO3)c12 [Example 8]", "IC50": "0.54 nM"}
{"compound": "CO[C@H]1CC[C@H](NC/C=C/C(=O)N2CCN(c3nc(OC[C@@H]4CCCN4C)nc4c3CO[C@H](c3cc(O)cc5cccc(Br)c35)C4)C[C@@H]2CC#N)CC1 [Example 11]", "IC50": "0.81 nM"}
{"compound": "COC1CCN(C/C=C/C(=O)N2CCN(c3nc(OC[C@@H]4CCCN4C)nc4c3CO[C@H](c3cc(O)cc5cccc(Br)c35)C4)C[C@@H]2CC#N)CC1 [Example 10]", "IC50": "0.73 nM"}

----------
Entries and their IC50 values follow.
Target: Biotinylated KRAS G12C protein and GST-tagged Ras binding domain of c-RAF (Homo sapiens, UniProt P01116, C118S/C51S/C80L/G12C)
Construct: biotin acceptor peptide (Avi-type, […]
Sequence (P01116 with tags, fused parts or gaps isoform P01116-2 G12C/C51S/C80L/C118S): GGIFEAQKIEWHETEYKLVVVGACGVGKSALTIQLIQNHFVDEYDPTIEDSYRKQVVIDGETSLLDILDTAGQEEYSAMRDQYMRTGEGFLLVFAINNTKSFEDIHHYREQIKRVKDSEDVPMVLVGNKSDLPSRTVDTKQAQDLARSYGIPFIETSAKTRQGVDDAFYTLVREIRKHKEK
Assay: Test Example 5: RAS:RAF-RBD binding assay (TR-FRET)
Conditions: 30-minute incubation with compound, then GST-c-RAF RBD, read-out: cRaf IC50
Experimental: Test Example 5: Procedure for RAS:RAF-RBD Binding Assay […] The time-resolved fluorescence resonance energy transfer signal of both plates is measured on an Envision (PerkinElmer) plate reader: dichroic mirror=LANCE/DELFIA DUAL/Bias; Emission1=615 nm; Emission2=665 nm; delay time=[…]. The signal of each well is determined as the ratio of the emission at 665 nm to that at 615 nm. […]

{"compound": "COC1CCN(C/C=C/C(=O)N2CCN(c3nc(OC[C@@]45CCCN4C[C@H](F)C5)nc4c3COC(c3nc(N)cc(C)c3C(F)(F)F)C4)C[C@@H]2CC#N)CC1 (stereo partly drawn)", "outputUnit": "µM", "valueOperator": "=", "IC50": 0.122}
{"compound": "C#Cc1cccc2cccc(C3Cc4nc(OC[C@]5(CO)CC5(F)F)nc(N5CCN(C(=O)/C=C/CN6CCC(OC)CC6)[C@@H](CC#N)C5)c4CO3)c12 (stereo partly drawn)", "outputUnit": "µM", "valueOperator": ">", "IC50": 50}
{"compound": "COC1CCN(C/C=C/C(=O)N2CCN(c3nc(OC[C@@]45CCCN4C[C@H](F)C5)nc4c3COC(c3c(F)cc(F)c5ccc(N)nc35)C4)C[C@@H]2CC#N)CC1 (single isomer, unassigned) [Example 23b]", "outputUnit": "µM", "valueOperator": "=", "IC50": 12.7}
{"compound": "COC1CCN(C/C=C/C(=O)N2CCN(c3nc(OC[C@@]45CCCN4C[C@H](F)C5)nc4c3COC(c3c(F)cc(F)c5ccc(N)nc35)C4)C[C@@H]2CC#N)CC1 (single isomer, unassigned) [Example 23a]", "outputUnit": "µM", "valueOperator": ">", "IC50": 50}
{"compound": "C#Cc1cccc2cccc([C@@H]3Cc4nc(OC[C@@]56CCCN5C[C@H](F)C6)nc(N5CCN(C(=O)/C=C/CN6CCC(OC)CC6)[C@@H](CC#N)C5)c4CO3)c12 (single isomer, unassigned) [Example 25b]", "outputUnit": "µM", "valueOperator": "=", "IC50": 0.074}
{"compound": "COC1CCN(C/C=C/C(=O)N2CCN(c3nc(OC[C@@]45CCCN4C[C@H](F)C5)nc4c3CCC3(CCCc5ccccc53)O4)C[C@@H]2CC#N)CC1 (stereo partly drawn)", "outputUnit": "µM", "valueOperator": "=", "IC50": 48.8}

From: patent US20240417408A1
